Molecular target: GABA transporter 4 (Mus musculus, UniProt P31650)
Sequence (P31650 whole entry): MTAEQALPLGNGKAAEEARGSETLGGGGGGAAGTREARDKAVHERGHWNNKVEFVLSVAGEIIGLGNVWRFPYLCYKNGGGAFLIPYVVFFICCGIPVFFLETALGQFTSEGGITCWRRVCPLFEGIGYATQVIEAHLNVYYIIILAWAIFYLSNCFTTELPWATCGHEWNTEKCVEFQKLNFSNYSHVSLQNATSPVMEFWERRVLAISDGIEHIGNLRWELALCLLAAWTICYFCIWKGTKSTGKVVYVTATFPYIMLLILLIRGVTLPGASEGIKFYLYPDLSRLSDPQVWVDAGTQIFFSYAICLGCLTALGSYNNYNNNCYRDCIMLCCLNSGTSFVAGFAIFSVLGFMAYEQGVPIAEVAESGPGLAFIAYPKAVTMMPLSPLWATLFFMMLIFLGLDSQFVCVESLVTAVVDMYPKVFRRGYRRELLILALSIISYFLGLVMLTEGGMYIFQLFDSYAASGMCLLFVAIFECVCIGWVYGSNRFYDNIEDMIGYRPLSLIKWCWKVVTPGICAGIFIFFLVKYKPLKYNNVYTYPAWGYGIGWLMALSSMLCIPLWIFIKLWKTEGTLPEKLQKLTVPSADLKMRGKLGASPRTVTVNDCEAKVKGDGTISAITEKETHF
Assay: Inhibition of mouse GAT4 expressed in HEK293 cells assessed as reduction in [3H]GABA uptake preincubated for 25 mins followed by [3H]GABA addition and measured after 4 mins by liquid scintillation counting method
Type: cell-based
RECORDED_METRIC: IC50 (µM)

| COMPOUND | ASSAYED_TARGET | IC50 / µM |
| --- | --- | --- |
| COc1ccc(C(/C=C/CN2CCC[C@H](C(=O)O)C2)(c2ccc(OC)cc2)c2ccc3sccc3c2)cc1 | GABA transporter 4 (Mus musculus, UniProt P31650) | 2.88 |
| COc1ccc(C(/C=C/CN2CCCC(C(=O)O)C2)(c2ccc(OC)cc2)c2ccc3c(c2)OCO3)cc1 (racemic) | GABA transporter 4 (Mus musculus, UniProt P31650) | 3.16 |
| Cc1ccc(C(/C=C/CN2CCCC(C(=O)O)C2)(c2ccc(C)cc2)c2ccc(C)cc2)cc1 (racemic) | GABA transporter 4 (Mus musculus, UniProt P31650) | 10.7 |
| COc1ccc(C(/C=C/CN2CCCC(C(=O)O)C2)c2ccc(OC)cc2)cc1 (racemic) | GABA transporter 4 (Mus musculus, UniProt P31650) | 31.6 |
| COc1ccc(C(C/C=C/CN2CCCC(C(=O)O)C2)(c2ccc(OC)cc2)c2ccc(OC)cc2)cc1 (racemic) | GABA transporter 4 (Mus musculus, UniProt P31650) | 41.7 |

(1) COc1ccc(C(/C=C/CN2CCCC(C(=O)O)C2)(c2ccc(OC)cc2)c2ccc3sccc3c2)cc1 (racemic)
(2) COc1ccc(C(/C=C/CN2CCCC(C(=O)O)C2)(c2ccc(OC)cc2)c2ccsc2)cc1 (racemic)
(3) COc1ccc(C(O)(/C=C/CN2CCCC(C(=O)O)C2)c2ccc(OC)cc2)cc1 (racemic)
Qu. Hello, I need these entries ordered by IC50, highest reading first. Thanks! Respond with the label ranking, as requested.
Ans. 3, 2, 1
